- TEST SYSTEM: Muscarinic acetylcholine receptor M2 (Homo sapiens); also: assay procedure not described here
- Sequence (P08172 whole entry): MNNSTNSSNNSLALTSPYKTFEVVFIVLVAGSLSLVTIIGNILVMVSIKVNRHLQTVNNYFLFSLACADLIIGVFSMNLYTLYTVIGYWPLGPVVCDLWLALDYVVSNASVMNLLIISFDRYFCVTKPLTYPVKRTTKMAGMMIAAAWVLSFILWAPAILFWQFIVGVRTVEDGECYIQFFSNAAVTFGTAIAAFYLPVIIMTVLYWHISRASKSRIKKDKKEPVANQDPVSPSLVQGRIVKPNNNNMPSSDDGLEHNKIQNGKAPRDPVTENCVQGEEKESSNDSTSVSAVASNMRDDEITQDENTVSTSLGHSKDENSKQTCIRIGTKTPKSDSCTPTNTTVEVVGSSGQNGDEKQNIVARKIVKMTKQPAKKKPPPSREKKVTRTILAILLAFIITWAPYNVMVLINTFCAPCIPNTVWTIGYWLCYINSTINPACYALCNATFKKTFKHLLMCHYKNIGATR
- Format: functional, cell-based
MEASUREMENT LABEL: AC50

COMPOUND: COc1ccc(-c2noc(CC(=O)O)c2-c2ccc(OC)cc2)cc1 [MOFEZOLAC]
AC50: > 30 µM

Give the reported value of AC50 for this record: C=CC[C@@H]1/C=C(\C)C[C@H](C)C[C@H](OC)[C@H]2O[C@@](O)(C(=O)C(=O)N3CCCC[C@H]3C(=O)O[C@H](/C(C)=C/[C@@H]3CC[C@@H](O)[C@H](OC)C3)[C@H](C)[C@@H](O)CC1=O)[C@H](C)C[C@@H]2OC [TACROLIMUS ANHYDROUS]
> 10 µM

Give the reported value of AC50 for this record: Nc1cc(-c2ccncc2)c[nH]c1=O [INAMRINONE]
> 10 µM

* * *

The listing below reports AC50 for molecules tested on Growth hormone secretagogue receptor type 1 (Homo sapiens). Also: assay procedure not described here.
Sequence (Q92847 whole entry): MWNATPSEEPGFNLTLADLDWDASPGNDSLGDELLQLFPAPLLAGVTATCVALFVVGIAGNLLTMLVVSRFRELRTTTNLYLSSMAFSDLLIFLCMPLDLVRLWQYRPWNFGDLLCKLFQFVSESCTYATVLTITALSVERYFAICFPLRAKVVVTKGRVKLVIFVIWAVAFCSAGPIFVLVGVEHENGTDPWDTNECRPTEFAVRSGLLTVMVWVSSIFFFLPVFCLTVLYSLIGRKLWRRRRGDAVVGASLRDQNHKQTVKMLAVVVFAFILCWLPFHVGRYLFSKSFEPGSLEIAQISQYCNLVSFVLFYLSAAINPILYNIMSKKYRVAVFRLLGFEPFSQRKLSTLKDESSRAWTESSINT

MOLECULE: CCCCCC(=O)O[C@]1(C(C)=O)CC[C@H]2[C@@H]3CCC4=CC(=O)CC[C@]4(C)[C@H]3CC[C@@]21C [HYDROXYPROGESTERONE CAPROATE]
TEST SYSTEM: Growth hormone secretagogue receptor type 1 (Homo sapiens); also: assay procedure not described here
MEASUREMENT LABEL: AC50
OBSERVED VALUE: > 30 µM

MOLECULE: C=CC[C@@H]1/C=C(\C)C[C@H](C)C[C@H](OC)[C@H]2O[C@@](O)(C(=O)C(=O)N3CCCC[C@H]3C(=O)O[C@H](/C(C)=C/[C@@H]3CC[C@@H](O)[C@H](OC)C3)[C@H](C)[C@@H](O)CC1=O)[C@H](C)C[C@@H]2OC [TACROLIMUS ANHYDROUS]
TEST SYSTEM: Growth hormone secretagogue receptor type 1 (Homo sapiens); also: assay procedure not described here
MEASUREMENT LABEL: AC50
OBSERVED VALUE: > 30 µM

MOLECULE: CCOC(=O)c1cncn1[C@H](C)c1ccccc1 [ETOMIDATE]
TEST SYSTEM: Growth hormone secretagogue receptor type 1 (Homo sapiens); also: assay procedure not described here
MEASUREMENT LABEL: AC50
OBSERVED VALUE: > 10 µM

Now for the molecule whose AC50 we want.
Provide AC50, system Growth hormone secretagogue receptor type 1 (Homo sapiens), entry COc1cc2c(cc1OC)C(CCc1ccc(Cl)cc1)N(C)CC2 (stereo unspecified); also: assay procedure not described here
> 30 µM

* * *

The listing below reports AC50 for compounds tested on Histamine H3 receptor (Homo sapiens, UniProt Q9Y5N1). Also: assay procedure not described here.
Sequence (Q9Y5N1 whole entry): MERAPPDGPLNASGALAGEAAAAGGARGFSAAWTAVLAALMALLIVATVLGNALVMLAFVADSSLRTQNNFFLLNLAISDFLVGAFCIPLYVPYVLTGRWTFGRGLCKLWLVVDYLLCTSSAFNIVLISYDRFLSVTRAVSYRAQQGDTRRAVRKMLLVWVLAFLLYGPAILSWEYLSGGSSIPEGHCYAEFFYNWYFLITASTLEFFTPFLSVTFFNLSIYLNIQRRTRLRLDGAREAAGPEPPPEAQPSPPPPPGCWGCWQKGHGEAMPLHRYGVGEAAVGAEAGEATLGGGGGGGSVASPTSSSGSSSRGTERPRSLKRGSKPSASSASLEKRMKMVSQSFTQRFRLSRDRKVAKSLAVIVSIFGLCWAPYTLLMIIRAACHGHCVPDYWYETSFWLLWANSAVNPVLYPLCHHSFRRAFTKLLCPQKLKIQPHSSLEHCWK

Provide AC50, system Histamine H3 receptor (Homo sapiens, UniProt Q9Y5N1), entry CCOC(=O)C1=C(C)NC(C)=C(C(=O)OC)C1c1cccc([N+](=O)[O-])c1 (stereo not drawn) [NITRENDIPINE]; also: assay procedure not described here
> 10 µM

Provide AC50, system Histamine H3 receptor (Homo sapiens, UniProt Q9Y5N1), entry CCN1CCN(Cc2ccc(Nc3ncc(F)c(-c4cc(F)c5nc(C)n(C(C)C)c5c4)n3)nc2)CC1 [ABEMACICLIB]; also: assay procedure not described here
0.31 µM

Provide AC50, system Histamine H3 receptor (Homo sapiens, UniProt Q9Y5N1), entry CCC1(c2ccccc2)CCC(=O)NC1=O (stereo not drawn) [GLUTETHIMIDE]; also: assay procedure not described here
> 10 µM

Provide AC50, system Histamine H3 receptor (Homo sapiens, UniProt Q9Y5N1), entry CCC(C)C1(CC)C(=O)NC(=O)NC1=O (stereo not drawn) [BUTABARBITAL]; also: assay procedure not described here
> 30 µM

Provide AC50, system Histamine H3 receptor (Homo sapiens, UniProt Q9Y5N1), entry CN1CCC(=C2c3ccccc3CCc3cccnc32)CC1 [AZATADINE]; also: assay procedure not described here
> 10 µM

* * *

- TEST SYSTEM: UniProt:P30556
- Sequence (P30556 whole entry): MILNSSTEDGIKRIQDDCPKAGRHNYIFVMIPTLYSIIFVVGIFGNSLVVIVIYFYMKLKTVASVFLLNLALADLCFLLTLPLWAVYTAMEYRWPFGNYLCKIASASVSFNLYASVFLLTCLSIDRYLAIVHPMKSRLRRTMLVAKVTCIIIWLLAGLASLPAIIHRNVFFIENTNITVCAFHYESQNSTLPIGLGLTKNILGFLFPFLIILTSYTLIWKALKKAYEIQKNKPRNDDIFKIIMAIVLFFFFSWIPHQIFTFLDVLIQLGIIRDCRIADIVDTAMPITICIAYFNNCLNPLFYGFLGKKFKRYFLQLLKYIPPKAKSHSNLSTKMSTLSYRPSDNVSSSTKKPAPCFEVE
MEASUREMENT LABEL: AC50

Worked set:
COMPOUND: CC(=O)SC[C@@H](C)C(=O)N1CCC[C@H]1C(=O)N[C@@H](Cc1ccccc1)C(=O)O
AC50: > 30 µM
//
COMPOUND: CC1OC2(CS1)CN1CCC2CC1 (centres undefined)
AC50: > 10 µM
//
COMPOUND: CCCC(CCC)C(N)=O [VALPROMIDE]
AC50: > 30 µM
//
COMPOUND: CC(C)NCC(O)c1ccc(O)c(O)c1 (centres undefined)
AC50: > 30 µM
//
COMPOUND: CN(C)CCc1c[nH]c2ccc(Cn3cncn3)cc12
AC50: > 30 µM
//
COMPOUND: CC(=O)N[C@@H](CS)C(=O)O
AC50: > 30 µM
//
COMPOUND: CNCc1ccc(-c2[nH]c3cc(F)cc4c3c2CCNC4=O)cc1
AC50: > 30 µM
//
COMPOUND: CCN1CCN(Cc2ccc(Nc3ncc(F)c(-c4cc(F)c5nc(C)n(C(C)C)c5c4)n3)nc2)CC1
AC50: > 30 µM
//
COMPOUND: O=C(O)c1ccccc1Nc1cc(Cl)ccc1C(=O)O
AC50: > 30 µM
//
COMPOUND: CCC(=O)O[C@H]1CC[C@H]2[C@@H]3CCC4=CC(=O)CC[C@]4(C)[C@H]3CC[C@]12C [TESTOSTERONE PROPIONATE]
AC50: > 10 µM

Provide AC50, system UniProt:P30556, entry CC(N)C(O)c1ccccc1 (centres undefined)
> 30 µM

* * *

- TEST SYSTEM: Histamine H1 receptor (Homo sapiens, UniProt P35367); also: assay procedure not described here
- Sequence (P35367 whole entry): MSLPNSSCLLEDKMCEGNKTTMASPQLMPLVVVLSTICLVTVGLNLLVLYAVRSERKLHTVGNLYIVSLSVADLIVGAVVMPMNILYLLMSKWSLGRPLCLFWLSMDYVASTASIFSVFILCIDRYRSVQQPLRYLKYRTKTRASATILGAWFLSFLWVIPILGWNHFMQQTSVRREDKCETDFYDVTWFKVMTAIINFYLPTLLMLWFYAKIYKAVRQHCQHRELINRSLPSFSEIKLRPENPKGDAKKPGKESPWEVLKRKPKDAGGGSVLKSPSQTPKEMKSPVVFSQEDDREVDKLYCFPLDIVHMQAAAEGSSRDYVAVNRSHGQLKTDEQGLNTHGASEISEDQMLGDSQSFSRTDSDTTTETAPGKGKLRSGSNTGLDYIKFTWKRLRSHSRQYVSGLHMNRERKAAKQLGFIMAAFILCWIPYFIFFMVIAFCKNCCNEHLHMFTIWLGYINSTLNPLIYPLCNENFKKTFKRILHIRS
- Assay type: functional, cell-based
Listed here are molecules together with their documented AC50.

MOLECULE: CC(=O)N[C@@H](CS)C(=O)O
TEST SYSTEM: Histamine H1 receptor (Homo sapiens, UniProt P35367); also: assay procedure not described here
AC50: > 30 µM

Give the reported value of AC50 for this record: CN1CCC(=C2c3ccccc3CCc3cccnc32)CC1
0.0665 µM

Give the reported value of AC50 for this record: C[C@]12CC[C@@H]3c4ccc(O)cc4C[C@@H](CCCCCCCCC[S+]([O-])CCCC(F)(F)C(F)(F)F)[C@H]3[C@@H]1CC[C@@H]2O (stereo partly drawn)
> 30 µM

* * *

- TEST SYSTEM: UniProt:P18825
- Sequence (P18825 whole entry): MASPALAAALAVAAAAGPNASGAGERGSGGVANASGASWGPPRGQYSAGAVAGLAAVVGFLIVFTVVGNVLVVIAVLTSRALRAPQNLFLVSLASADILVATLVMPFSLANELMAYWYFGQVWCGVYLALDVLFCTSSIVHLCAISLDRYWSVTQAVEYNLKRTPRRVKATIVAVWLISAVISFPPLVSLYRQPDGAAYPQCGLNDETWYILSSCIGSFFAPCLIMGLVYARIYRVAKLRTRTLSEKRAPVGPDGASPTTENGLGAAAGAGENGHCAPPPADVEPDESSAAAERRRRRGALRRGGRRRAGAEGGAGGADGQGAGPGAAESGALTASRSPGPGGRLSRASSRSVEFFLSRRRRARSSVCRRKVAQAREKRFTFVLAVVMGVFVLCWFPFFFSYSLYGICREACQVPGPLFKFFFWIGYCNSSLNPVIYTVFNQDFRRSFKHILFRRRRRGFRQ
- Format: functional
MEASUREMENT LABEL: AC50

COMPOUND: CCOC(=O)C1=C[C@]2(CC)CCCN3CCc4c(n1c1ccccc41)[C@@H]32
AC50: 1.1 µM

COMPOUND: CN(C)CCc1c[nH]c2ccc(Cn3cncn3)cc12
AC50: 20.8 µM

COMPOUND: C=C[C@@]1(C)CC(=O)[C@]2(O)[C@@]3(C)[C@@H](O)CCC(C)(C)[C@@H]3[C@H](O)[C@H](OC(C)=O)[C@@]2(C)O1
AC50: > 30 µM

COMPOUND: CN1C(C(=O)Nc2ccccn2)=C(O)c2ccccc2S1(=O)=O
AC50: > 30 µM

COMPOUND: C[C@]12CC[C@@H]3c4ccc(O)cc4C[C@@H](CCCCCCCCC[S+]([O-])CCCC(F)(F)C(F)(F)F)[C@H]3[C@@H]1CC[C@@H]2O (stereo not given in full)
AC50: > 30 µM

COMPOUND: CCCCC(=O)O[C@]1(C(=O)CO)[C@@H](C)C[C@H]2[C@@H]3CCC4=CC(=O)C=C[C@]4(C)[C@@]3(F)[C@@H](O)C[C@@]21C [BETAMETHASONE VALERATE]
AC50: > 10 µM

COMPOUND: COc1ccc(-c2noc(CC(=O)O)c2-c2ccc(OC)cc2)cc1
AC50: > 30 µM

COMPOUND: CC(C(=O)O)c1ccc(-c2ccccc2)c(F)c1 (stereo not given)
AC50: > 10 µM

COMPOUND: COc1cc2ncnc(Nc3ccc(F)c(Cl)c3)c2cc1NC(=O)/C=C/CN1CCCCC1 [DACOMITINIB ANHYDROUS]
AC50: 21 µM

COMPOUND: O=C(O)CCNC(=O)c1ccccc1
AC50: > 30 µM

Give the reported value of AC50 for this record: CNC1=Nc2ccc(Cl)cc2C(c2ccccc2)=[N+]([O-])C1 [CHLORDIAZEPOXIDE]
> 10 µM

Give the reported value of AC50 for this record: COCC1=C(C(=O)O)N2C(=O)[C@@H](NC(=O)/C(=N\OC)c3csc(N)n3)[C@H]2SC1
> 30 µM

Give the reported value of AC50 for this record: CCCN[C@H]1CCc2nc(N)sc2C1 [PRAMIPEXOLE]
> 10 µM

Give the reported value of AC50 for this record: O=C1CN(/N=C/c2ccc(-c3ccc([N+](=O)[O-])cc3)o2)C(O)=N1
> 10 µM

Give the reported value of AC50 for this record: CC(=O)O[C@H](CC(=O)[O-])C[N+](C)(C)C
> 30 µM
